Target: AChE from electric eel (EeAChE) (Electrophorus electricus, UniProt O42275)
Construct: purchased Merck (Prague, Czech Republic)
Sequence (O42275 24-633): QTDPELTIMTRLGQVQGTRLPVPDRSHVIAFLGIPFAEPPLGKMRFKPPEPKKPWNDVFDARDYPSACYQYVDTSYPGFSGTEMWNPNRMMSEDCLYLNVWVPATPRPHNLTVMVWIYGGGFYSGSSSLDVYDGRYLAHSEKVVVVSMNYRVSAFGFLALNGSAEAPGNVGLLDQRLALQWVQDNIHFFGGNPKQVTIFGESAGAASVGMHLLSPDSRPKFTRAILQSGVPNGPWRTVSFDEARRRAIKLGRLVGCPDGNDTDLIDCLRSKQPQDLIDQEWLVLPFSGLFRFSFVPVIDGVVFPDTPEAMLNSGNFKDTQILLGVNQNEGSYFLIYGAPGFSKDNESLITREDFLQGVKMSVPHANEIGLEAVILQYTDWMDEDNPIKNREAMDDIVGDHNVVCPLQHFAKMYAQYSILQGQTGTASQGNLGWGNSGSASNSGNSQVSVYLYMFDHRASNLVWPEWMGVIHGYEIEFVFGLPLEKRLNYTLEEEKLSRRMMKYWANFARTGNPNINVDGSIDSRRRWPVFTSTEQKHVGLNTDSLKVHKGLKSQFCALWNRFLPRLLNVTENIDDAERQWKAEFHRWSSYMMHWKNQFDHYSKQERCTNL
Assay: Inhibition of AChE, modified Ellman's spectrophotometric method
Type: biochemical, electric eel (Electrophorus electricus L.)
Conditions: selectivity for AChE
Procedure: The heterocycles 3 were screened for their ability to interfere with the function of AChE from electric eel (EeAChE) and BChE from equine serum (EqBChE) using Ellman’s method (Table 1). […] In addition, we calculated selectivity indexes (SI) that quantify the selectivity for AChE as more inhibited cholinesterase. […] Enzyme inhibition activity of 3 quantified as IC50 values was determined spectrophotometrically using modified Ellman’s method. […]
Could you please mark condition met for values of BChE/AChE Ratio (selectivity index, IC50 for BChE/IC50 for AChE) below 4 and condition not met for values at or above it?

Asked: Hello, I'm reviewing records and need to know if BChE/AChE Ratio (selectivity index, IC50 for BChE/IC50 for AChE) of `CCCCCCCCCCCCNc1nnc(-c2ccnnc2)o1` is below 4. Could you check?
Given back: condition met

Asked: For `CCCCCCCCCCCCNc1nnc(-c2ccccn2)o1` , is the recorded BChE/AChE Ratio (selectivity index, IC50 for BChE/IC50 for AChE) below the cut-off of 4?
Given back: condition not met

Asked: Identify whether the compound `CCCCCCCCCCCCNc1nnc(-c2ccnc(Br)c2)o1` records BChE/AChE Ratio (selectivity index, IC50 for BChE/IC50 for AChE) below 4.
Given back: condition met

Asked: In plain terms, does `CCCCCCCCCCCCNc1nnc(-c2ccncc2)o1` come in under 4 for BChE/AChE Ratio (selectivity index, IC50 for BChE/IC50 for AChE)?
Given back: condition not met

Asked: Please indicate whether the reported BChE/AChE Ratio (selectivity index, IC50 for BChE/IC50 for AChE) of `CCCCCCCCCCCCNc1nnc(-c2ccc(Cl)cc2)o1` is strictly below 4.
Given back: condition not met

Asked: Answer whether the compound `CCCCCCCCCCCCNc1nnc(-c2ccc(Br)cc2)o1` has BChE/AChE Ratio (selectivity index, IC50 for BChE/IC50 for AChE) strictly less than 4
Given back: condition not met

Asked: Quick check: does `CCCCCCCCCCCCNc1nnc(-c2ccncc2)s1` have BChE/AChE Ratio (selectivity index, IC50 for BChE/IC50 for AChE) under 4?
Given back: condition not met

Asked: Identify whether the compound `CCCCCCCCCCCCNc1nnc(-c2ccc(C(C)(C)C)cc2)o1` records BChE/AChE Ratio (selectivity index, IC50 for BChE/IC50 for AChE) below 4.
Given back: condition met

Asked: Check if BChE/AChE Ratio (selectivity index, IC50 for BChE/IC50 for AChE) falls below 4 for `CCCCCCCCCCCCNc1nnc(-c2ccccc2)o1` .
Given back: condition met

Asked: Below 4 on BChE/AChE Ratio (selectivity index, IC50 for BChE/IC50 for AChE)? Entry `CCCCCCCCCCCCNc1nnc(-c2ccc(N(C)C)cc2)o1`
Given back: condition met

Asked: Check if BChE/AChE Ratio (selectivity index, IC50 for BChE/IC50 for AChE) falls below 4 for `CCCCCCCCCCCCNc1nnc(-c2ccncn2)o1` .
Given back: condition not met

Asked: Hi there! Is BChE/AChE Ratio (selectivity index, IC50 for BChE/IC50 for AChE) for `CCCCCCCCCCCCNc1nnc(-c2cccnc2)o1` below 4, do you know?
Given back: condition not met

Asked: Record `CCCCCCCCCCCCNc1nnc(-c2ccc(OC)cc2)o1` : is its BChE/AChE Ratio (selectivity index, IC50 for BChE/IC50 for AChE) strictly below 4?
Given back: condition not met

Asked: Bench note: check whether `CCCCCCCCCCCCSc1nnc(-c2ccncc2)o1` shows BChE/AChE Ratio (selectivity index, IC50 for BChE/IC50 for AChE) below 4
Given back: condition not met

Asked: Hello, I'm reviewing records and need to know if BChE/AChE Ratio (selectivity index, IC50 for BChE/IC50 for AChE) of `CCCCCCCCCCCCc1nnc(-c2ccncc2)o1` is below 4. Could you check?
Given back: condition met

Asked: Bench note: check whether `CCCCCCCCCCCCNc1nnc(-c2ccc(I)cc2)o1` shows BChE/AChE Ratio (selectivity index, IC50 for BChE/IC50 for AChE) below 4
Given back: condition not met

Asked: Hi there! Is BChE/AChE Ratio (selectivity index, IC50 for BChE/IC50 for AChE) for `CCCCCCCCCCCCNc1nnc(-c2ccc(F)cc2)o1` below 4, do you know?
Given back: condition not met

Asked: Lab note: confirm whether the reported BChE/AChE Ratio (selectivity index, IC50 for BChE/IC50 for AChE) for this compound is below 4, equality not counting. compound: `CCCCCCCCCCCCNc1nnc(-c2ccc(C)cc2)o1`
Given back: condition met

Asked: Quick check: does `CCCCCCCCCCCCNc1nnc(-c2ccc([N+](=O)[O-])cc2)o1` have BChE/AChE Ratio (selectivity index, IC50 for BChE/IC50 for AChE) under 4?
Given back: condition met

Asked: Could you please tell me whether BChE/AChE Ratio (selectivity index, IC50 for BChE/IC50 for AChE) recorded for `CCCCCCCCCCCCNc1nnc(-c2cc([N+](=O)[O-])cc([N+](=O)[O-])c2)o1` is less than 4?
Given back: condition not met

Asked: Strictly below 4: is that where BChE/AChE Ratio (selectivity index, IC50 for BChE/IC50 for AChE) of `CCCCCCCCCCCCNc1nnc(-c2cnccn2)o1` sits?
Given back: condition not met

====

readout type: IC50 (µM)
Numeric only. Scale: µM

Asked: Param readout = IC50; param system = AChE from electric eel (EeAChE) (Electrophorus electricus); param query = `CCCCCCCCCCCCNc1nnc(-c2ccc([N+](=O)[O-])cc2)o1` ; response: value
Given back: 70.5

Asked: # get_value(readout= IC50, system= AChE from electric eel (EeAChE) (Electrophorus electricus)) for `CCCCCCCCCCCCNc1nnc(-c2cnccn2)o1`
Given back: 92.1

Asked: Param readout= IC50; system= AChE from electric eel (EeAChE) (Electrophorus electricus); entry= `CCCCCCCCCCCCNc1nnc(-c2ccc(N(C)C)cc2)o1` ; returns value.
Given back: 88

Asked: Write down the reported IC50 of `CCCCCCCCCCCCNc1nnc(-c2ccncc2)s1` , test system: AChE from electric eel (EeAChE) (Electrophorus electricus).
Given back: 12.8

Asked: Under AChE from electric eel (EeAChE) (Electrophorus electricus): IC50 value of `CCCCCCCCCCCCNc1nnc(-c2cccnc2)o1` ?
Given back: 64.2

Asked: Lookup: IC50 / AChE from electric eel (EeAChE) (Electrophorus electricus) / `CCCCCCCCCCCCNc1nnc(-c2ccccc2)o1`
Given back: 40.1

Asked: Reported IC50 for AChE from electric eel (EeAChE) (Electrophorus electricus), given `CCCCCCCCCCCCNc1nnc(-c2ccnnc2)o1` ?
Given back: 81.5

Asked: Could you share what IC50 was measured for `CCCCCCCCCCCCc1nnc(-c2ccncc2)o1` , tested on AChE from electric eel (EeAChE) (Electrophorus electricus)?
Given back: 99.2

Asked: API: value(readout=IC50, system=AChE from electric eel (EeAChE) (Electrophorus electricus)) for record `CCCCCCCCCCCCNc1nnc(-c2ccc(C)cc2)o1`
Given back: 34.6

Asked: Record `CCCCCCCCCCCCNc1nnc(-c2ccc(I)cc2)o1` : what is its IC50 with AChE from electric eel (EeAChE) (Electrophorus electricus)?
Given back: 37.8

Asked: Hello, I am looking for reported IC50 with AChE from electric eel (EeAChE) (Electrophorus electricus) for `CCCCCCCCCCCCSc1nnc(-c2ccncc2)o1` . Could you help?
Given back: 91.6

Asked: Recall the recorded IC50 for `CCCCCCCCCCCCNc1nnc(-c2ccc(Cl)cc2)o1` with AChE from electric eel (EeAChE) (Electrophorus electricus) and state it.
Given back: 50.2

Asked: I'm curious: which IC50 was measured for `CCCCCCCCCCCCNc1nnc(-c2ccc(F)cc2)o1` tested on AChE from electric eel (EeAChE) (Electrophorus electricus)?
Given back: 36.7

Asked: Any idea what IC50 came out for `CCCCCCCCCCCCNc1nnc(-c2ccc(C(C)(C)C)cc2)o1` on AChE from electric eel (EeAChE) (Electrophorus electricus)?
Given back: 65.2

Asked: # value lookup — system AChE from electric eel (EeAChE) (Electrophorus electricus), readout IC50, item `CCCCCCCCCCCCNc1nnc(-c2ccncc2)o1`
Given back: 50.2

Asked: Kindly state the measured IC50 obtained for `CCCCCCCCCCCCNc1nnc(-c2ccc(Br)cc2)o1` with AChE from electric eel (EeAChE) (Electrophorus electricus).
Given back: 40

Asked: Request: IC50, test system AChE from electric eel (EeAChE) (Electrophorus electricus), entry `CCCCCCCCCCCCNc1nnc(-c2ccnc(Br)c2)o1`
Given back: 73.4

Asked: Item: `CCCCCCCCCCCCNc1nnc(-c2cc([N+](=O)[O-])cc([N+](=O)[O-])c2)o1` Test system: AChE from electric eel (EeAChE) (Electrophorus electricus) Read-out: IC50 Value: ?
Given back: 41

Asked: Return IC50 measured with AChE from electric eel (EeAChE) (Electrophorus electricus) given this molecule: `CCCCCCCCCCCCNc1nnc(-c2ccccn2)o1`
Given back: 60.5

Asked: IC50 of `CCCCCCCCCCCCNc1nnc(-c2ccncn2)o1` on AChE from electric eel (EeAChE) (Electrophorus electricus)?
Given back: 45.5

Asked: Query IC50 on AChE from electric eel (EeAChE) (Electrophorus electricus) for `CCCCCCCCCCCCNc1nnc(-c2ccc(OC)cc2)o1`
Given back: 33.9

The reported numbers originate from paper PMC9029695.
